testTarget: sGC α1/β1 heterodimer (Homo sapiens (Human), UniProt Q02108+Q02153)
Sequence (Q02108 whole entry): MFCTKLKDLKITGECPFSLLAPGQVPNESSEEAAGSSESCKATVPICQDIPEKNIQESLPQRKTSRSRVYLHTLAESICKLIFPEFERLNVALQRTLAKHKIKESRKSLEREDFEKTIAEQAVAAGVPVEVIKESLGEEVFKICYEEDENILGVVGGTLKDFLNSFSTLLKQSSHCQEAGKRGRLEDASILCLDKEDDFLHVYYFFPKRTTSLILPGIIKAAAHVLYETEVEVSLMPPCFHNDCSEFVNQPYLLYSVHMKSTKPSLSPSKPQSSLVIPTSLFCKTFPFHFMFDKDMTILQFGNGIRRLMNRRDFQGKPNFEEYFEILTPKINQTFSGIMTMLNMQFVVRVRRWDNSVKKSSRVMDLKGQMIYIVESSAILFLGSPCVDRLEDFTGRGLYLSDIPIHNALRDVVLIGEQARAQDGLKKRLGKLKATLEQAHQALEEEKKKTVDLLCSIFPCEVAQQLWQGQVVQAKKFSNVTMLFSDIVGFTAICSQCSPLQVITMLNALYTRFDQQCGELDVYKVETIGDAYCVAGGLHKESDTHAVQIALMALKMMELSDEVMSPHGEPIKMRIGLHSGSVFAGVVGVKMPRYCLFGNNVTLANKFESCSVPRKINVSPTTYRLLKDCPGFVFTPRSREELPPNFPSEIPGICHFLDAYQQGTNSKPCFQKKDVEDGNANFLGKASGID
Sequence (Q02153 whole entry): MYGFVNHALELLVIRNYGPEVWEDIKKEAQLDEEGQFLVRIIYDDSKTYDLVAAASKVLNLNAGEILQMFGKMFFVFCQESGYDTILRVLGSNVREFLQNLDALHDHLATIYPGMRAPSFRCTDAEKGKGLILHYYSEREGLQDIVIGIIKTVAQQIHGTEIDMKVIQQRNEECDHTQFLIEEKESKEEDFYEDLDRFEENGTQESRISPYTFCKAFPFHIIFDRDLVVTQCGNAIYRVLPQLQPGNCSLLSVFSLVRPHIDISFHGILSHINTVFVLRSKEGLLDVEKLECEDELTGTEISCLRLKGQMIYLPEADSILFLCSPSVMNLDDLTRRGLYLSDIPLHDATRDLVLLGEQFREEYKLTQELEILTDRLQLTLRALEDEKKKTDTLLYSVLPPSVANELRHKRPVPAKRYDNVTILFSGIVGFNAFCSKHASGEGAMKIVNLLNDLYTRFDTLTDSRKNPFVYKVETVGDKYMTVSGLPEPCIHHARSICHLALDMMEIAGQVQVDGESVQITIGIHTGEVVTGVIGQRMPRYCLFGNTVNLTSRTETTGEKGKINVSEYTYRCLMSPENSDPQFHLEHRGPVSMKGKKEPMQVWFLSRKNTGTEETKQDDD
assayMethodText: Cell-based sGC functional assay (CASA assay), cGMP by HTRF
experimentalParameters: CHO-K1, cGMP production as percentage of maximum of compound A (set to 100%); CHO-K1/sGC cells; read-out: % Activation
measure: Emax (%)

CC1(c2ccc(O)c(F)c2)C(=O)Nc2nc(-c3cn4ncnc4c(CCC(F)(F)C(F)(F)F)n3)nc(N)c21 (racemic) : 137
CC1(c2cc(O)c(Cl)cn2)C(=O)Nc2nc(-c3cn4ccnc4c(CC4CCCCC4)n3)nc(N)c21 (stereo not shown) : 98
CC1(c2ccc(C(F)(F)F)c(O)c2)C(=O)Nc2nc(-c3cn4ccnc4c(Cc4cccc(F)c4)n3)nc(N)c21 (stereo not shown) : 117
CC1(c2cccc(O)c2)C(=O)Nc2nc(-c3cn4ccnc4c(Cc4cc(F)cc(F)c4)n3)nc(N)c21 (stereo not shown) : 114
CC1(c2ccc(C(F)(F)F)c(O)c2)C(=O)Nc2nc(-c3cn4ccnc4c(Cc4ccccc4F)n3)nc(N)c21 (stereo not shown) : 98
CC1(c2ccc(Cl)c(O)c2)C(=O)Nc2nc(-c3cn4ccnc4c(Cc4cccc(F)c4)n3)nc(NCC(O)C(F)(F)F)c21 (stereo not shown) : 89
CC1(c2ccc(Cl)c(O)c2)C(=O)Nc2nc(-c3cn4ccnc4c(CCC4CCCCC4)n3)nc(N)c21 (stereo not shown) : 121

###

testTarget: sGC α1/β1 heterodimer (Homo sapiens (Human), UniProt Q02108+Q02153)
assayMethodText: Cell-based sGC functional assay (CASA assay), cGMP by HTRF
experimentalParameters: inflection point of cGMP production, 4P fit; CHO-K1/sGC cells; read-out: IP
measure: EC50 (nM)

Some molecules with recorded EC50:
CC1(c2cc(Cl)c(O)cn2)C(=O)Nc2nc(-c3cn4ccnc4c(Cc4ccccc4F)n3)nc(N)c21 (single isomer, unassigned) [Example 104-B] : 813
CC(C)CCc1nc(-c2nc(N)c3c(n2)NC(=O)C3(C)c2cc(O)c(Cl)cn2)cn2ccnc12 (centres unmarked) : 798

(a) CC1(c2cc(O)c(C#N)c(Cl)c2)C(=O)Nc2nc(-c3cn4ccnc4c(CC4CCCCC4)n3)nc(N)c21 (centres unmarked)
(b) Cc1cn2cc(-c3nc(N)c4c(n3)NC(=O)C4(C)c3ccc(Cl)c(O)c3)nc(Cc3cccc(F)c3)c2n1 (centres unmarked)
(c) CC1(c2cccc(O)c2)C(=O)Nc2nc(-c3cn4ccnc4c(CCC4CCCCC4)n3)nc(N)c21 (centres unmarked)
[ask] Arrange these molecules by their EC50, starting with the largest number. Output the labels ranked as instructed.
[reply] a, b, c
(a: 3530 nM, b: 553 nM, c: 222 nM)

###

testTarget: sGC α1/β1 heterodimer (Homo sapiens (Human), UniProt Q02108+Q02153)
assayMethodText: Cell-based sGC functional assay (CASA assay), cGMP by HTRF
experimentalParameters: CHO-K1, cGMP production as percentage of maximum of compound A (set to 100%); CHO-K1/sGC cells; read-out: % Activation
measure: Emax (%)

Some compounds with recorded Emax:
CC1(c2ccc(O)c(Cl)c2)C(=O)Nc2nc(-c3cn4ccnc4c(CCC4CCCCC4)n3)nc(N)c21 (stereo not drawn) [Example 77-B] : 99
CC1(c2ccc(Cl)c(O)c2)C(=O)Nc2nc(-c3cn4ccnc4c(CC4CCCCC4)n3)nc(N)c21 (stereo not drawn) [Example 14-A] : 68
CC1(c2ccc(O)cc2)C(=O)Nc2nc(-c3cn4ccnc4c(Cc4ccc(F)cc4)n3)nc(N)c21 (stereo not drawn) [Example 43-B] : 101

(a) CC1(c2cccc(O)c2)C(=O)Nc2nc(-c3cn4ncnc4c(CCC(F)(F)C(F)(F)F)n3)nc(N)c21 (stereo not drawn) [Example 78-B]
(b) CC1(c2ccc(O)c(F)c2)C(=O)Nc2nc(-c3cn4ncnc4c(Cc4ccc(F)cc4)n3)nc(N)c21 (stereo not drawn) [Example 41-B]
[ask] Please compare: a and b . Report which one has the smaller Emax value. Respond using the label that marks the chosen record.
[reply] a

(P) CC1(c2ccc(O)c(F)c2)C(=O)Nc2nc(-c3cn4ccnc4c(Cc4ccccc4F)n3)nc(N)c21 (stereo not drawn) [Example 24-B]
(Q) CC1(c2ccc(O)cc2)C(=O)Nc2nc(-c3cn4ccnc4c(CCC(F)(F)C(F)(F)F)n3)nc(N)c21 (stereo not drawn) [Example 81-B]
[ask] Which shows the larger Emax value: P or Q ? Respond using the label that marks the chosen record.
[reply] Q
(Q: 131%, P: 88%)

(1) CCCCc1nc(-c2nc(N)c3c(n2)NC(=O)C3(C)c2ccc(O)c(F)c2)cn2ncnc12 (stereo not drawn) [Example 71-B]
(2) CC1(c2ccc(F)c(O)c2)C(=O)Nc2nc(-c3cn4ccnc4c(Cc4ccc(F)cc4)n3)nc(N)c21 (stereo not drawn) [Example 37-B]
[ask] Which shows the larger Emax value: 1 or 2 ? Respond using the label that marks the chosen record.
[reply] 2

(1) CC1(c2ccc(O)c(F)c2)C(=O)Nc2nc(-c3cn4ccnc4c(CCC(F)(F)C(F)(F)F)n3)nc(N3CC(O)(C(F)(F)F)C3)c21 (stereo not drawn) [Example 130-A]
(2) CC1(c2cc(O)c(Cl)c(F)c2)C(=O)Nc2nc(-c3cn4ncnc4c(Cc4ccccc4F)n3)nc(N)c21 (stereo not drawn) [Example 10-B]
[ask] Which shows the larger Emax value: 1 or 2 ? Respond using the label that marks the chosen record.
[reply] 2

(A) CC(C)CCc1nc(-c2nc(N)c3c(n2)NC(=O)C3(C)c2cc(O)c(Cl)c(F)c2)cn2ccnc12 (stereo not drawn) [Example 32-B]
(B) CC1(c2cc(O)c(C#N)c(F)c2)C(=O)Nc2nc(-c3cn4ccnc4c(Cc4cc(F)cc(F)c4F)n3)nc(N)c21 (stereo not drawn) [Example 102-B]
[ask] Please compare: A and B . Report which one has the smaller Emax value. Respond using the label that marks the chosen record.
[reply] B

(1) CC1(c2cc(O)c(Cl)c(F)c2)C(=O)Nc2nc(-c3cn4ccnc4c(Cc4ccccc4F)n3)nc(N)c21 (stereo not drawn) [Example 2-B]
(2) CC1(c2ccc(Cl)c(O)c2)C(=O)Nc2nc(-c3cn4ccnc4c(Cc4ccc(F)c(F)c4)n3)nc(N)c21 (stereo not drawn) [Example 20-A]
[ask] Which shows the larger Emax value: 1 or 2 ? Respond using the label that marks the chosen record.
[reply] 2

###

testTarget: sGC α1/β1 heterodimer (Homo sapiens (Human), UniProt Q02108+Q02153)
assayMethodText: Cell-based sGC functional assay (CASA assay), cGMP by HTRF
experimentalParameters: inflection point of cGMP production, 4P fit; CHO-K1/sGC cells; read-out: IP
measure: EC50 (nM)

CC1(c2cc(Cl)c(O)cn2)C(=O)Nc2nc(-c3cn4ccnc4c(Cc4ccccc4F)n3)nc(N)c21 (single isomer, unassigned) [Example 53-B] : 771
CC1(c2ccc(Cl)c(O)c2Cl)C(=O)Nc2nc(-c3cn4ncnc4c(CC4CCCCC4)n3)nc(N)c21 (stereo not shown) : 728

(I) CC1(c2ccc(Cl)c(O)c2)C(=O)Nc2nc(-c3cn4ccnc4c(CCCC(F)(F)F)n3)nc(N)c21 (stereo not shown)
(II) CC1(c2ccc(Cl)c(O)c2)C(=O)Nc2nc(-c3cn4ccnc4c(Cc4ccccc4F)n3)nc(N)c21 (stereo not shown)
[ask] Which shows the larger EC50 value: I or II ? Respond using the label that marks the chosen record.
[reply] I
(I: 969 nM, II: 316 nM)

###

testTarget: sGC α1/β1 heterodimer (Homo sapiens (Human), UniProt Q02108+Q02153)
assayMethodText: Cell-based sGC functional assay (CASA assay), cGMP by HTRF
experimentalParameters: inflection point of cGMP production, 4P fit; CHO-K1/sGC cells; read-out: IP
measure: EC50 (nM)

(1) CC1(c2ccc(Cl)c(O)c2)C(=O)Nc2nc(-c3cn4ccnc4c(Cc4cccc(F)c4)n3)nc(NCC(O)C(F)(F)F)c21 (centres unmarked) [Example 131-AA]
(2) CC1(c2ccc(O)c(Cl)c2)C(=O)Nc2nc(-c3cn4ccnc4c(CC4CCCCC4)n3)nc(N)c21 (centres unmarked) [Example 89-B]
[ask] Please compare: 1 and 2 . Report which one has the smaller EC50 value. Respond using the label that marks the chosen record.
[reply] 1

###

testTarget: sGC α1/β1 heterodimer (Homo sapiens (Human), UniProt Q02108+Q02153)
assayMethodText: Cell-based sGC functional assay (CASA assay), cGMP by HTRF
experimentalParameters: CHO-K1, cGMP production as percentage of maximum of compound A (set to 100%); CHO-K1/sGC cells; read-out: % Activation
measure: Emax (%)

CC1(c2ccc(F)c(O)c2)C(=O)Nc2nc(-c3cn4ccnc4c(CCC(F)(F)C(F)(F)F)n3)nc(N3CC(O)(C(F)(F)F)C3)c21 (stereo not drawn) : 84
CC1(c2cc(O)c(Cl)cn2)C(=O)Nc2nc(-c3cn4ccnc4c(Cc4c(F)cccc4F)n3)nc(N)c21 (stereo not drawn) : 73
CC1(c2ccc(C(F)(F)F)c(O)c2)C(=O)Nc2nc(-c3cn4ccnc4c(Cc4cc(F)cc(F)c4F)n3)nc(N)c21 (stereo not drawn) : 111
CC(C)CCc1nc(-c2nc(N)c3c(n2)NC(=O)C3(C)c2cc(O)ccn2)cn2ncnc12 (stereo not drawn) : 75
CC(C)CCc1nc(-c2nc(N)c3c(n2)NC(=O)C3(C)c2ccc(O)c(F)c2)cn2ccnc12 (stereo not drawn) : 72
CC1(c2cc(O)c(Cl)cn2)C(=O)Nc2nc(-c3cn4ccnc4c(CC4CCCC4)n3)nc(N)c21 (stereo not drawn) : 99

The reported measurements were obtained from patent US10780092B2.
